B1: DVL3 (parent)
chain: YNPHPGFPELGYSYGGGSASSQHS

Variants of: B1
procedureText: protein stability index of a GFP-peptide fusion (GPS, HEK-293T) (PSI 1-6); higher = more stable;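 also: lentivirally expressed fusions sorted by FACS into six bins by GFP to DsRed ratio, PSI derived from sequencing read proportions per bin multiplied by bin number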
measurementContext: c terminus: a fixed tail appended
parameterMeasured: protein stability index
One number for each entry.

YNPHPGFPELGYSYGGGKASSQHS [S18K] | 3.09
YNPHPGFPELGYSHGGGSASSQHS [Y14H] | 3.71
YNPHPGFPELGYSYGMGSASSQHS [G16M] | 2.79
YNPHPGFPELGYSYGGGSVSSQHS [A19V] | 2.03

Hi team, please reply with protein stability index for each item in this list.
1. YNPHPGFPELGYSYGGGSASSQHT [S24T]
2. SNPHPGFPELGYSYGGGSASSQHS [Y1S]
3. YNPHPGFPELGYSYGHGSASSQHS [G16H]

1: 1.78; 2: 3.75; 3: 2.72

Hi team, please reply with protein stability index for each item in this list.
1. YNPHPGFPMLGYSYGGGSASSQHS [E9M]
2. YNPHPGFPEHGYSYGGGSASSQHS [L10H]
3. YNPHPGHPELGYSYGGGSASSQHS [F7H]
4. YNPHPGFPELGYSYWGGSASSQHS [G15W]
5. YNPHPGFPELGYSYGGGSASSQQS [H23Q]
6. YGPHPGFPELGYSYGGGSASSQHS [N2G]
7. YNPHPGFPELGYSYGGGSASSQHW [S24W]
8. YNPHPGFPELGYSPGGGSASSQHS [Y14P]

1: 2.69; 2: 3.4; 3: 2.98; 4: 2.3; 5: 2.58; 6: 3.06; 7: 2.03; 8: 3.32

The value of protein stability index measured for the variant YNPHIGFPELGYSYGGGSASSQHS [P5I] turned out to be 2.4
